species: Rattus norvegicus; assay: Open TG-GATES - Regimen: Daily Repeat; assay type: toxicity, organism-based, Sprague-Dawley; set-up: regimen Daily Repeat, gender Male, age 6 weeks; conditions: in vivo, po, 0 mg/kg, […], route gavage, dose level Control, time 7 day
quantity: TERMINAL_BW
Write down the value, and be sure its unit follows.

A selection of reference data follows.
compound="CCOc1ccc(NC(=O)CC(C)O)cc1 (stereo not drawn)" valuereported="287 g"
compound="CCOC(=O)CCC(=O)O[C@H]1[C@H](O[C@@H]2[C@@H](C)[C@H](O[C@H]3C[C@@](C)(OC)[C@@H](O)[C@H](C)O3)[C@@H](C)C(=O)O[C@H](CC)[C@@](C)(O)[C@H](O)[C@@H](C)C(=O)[C@H](C)C[C@@]2(C)O)O[C@H](C)C[C@@H]1N(C)C [ERYTHROMYCIN ETHYLSUCCINATE]" valuereported="272.7 g"

Turning to the following compound.
Incoming: Value lookup for TERMINAL_BW; key = COc1ccc2[nH]c([S+]([O-])Cc3ncc(C)c(OC)c3C)nc2c1 (stereo not drawn)
Outgoing: 272.8 g
